So I've got a bunch of compounds here, and I need their IC50 values.
# targetUnderTest: Mu-type opioid receptor (Cavia porcellus)
# protocolDetails: Functional bioactivity against mu opioid receptor in guinea-pig ileum
Write the figure, then the unit, nothing else.

According to the records, this compound C=CCn1c(CNC(=O)[C@@H]2Cc3ccccc3CN2C(=O)[C@@H](N)Cc2c(C)cc(O)cc2C)nc2ccccc21 displays IC50 of 0.072 µM

Quick note, IC50 for Cc1cc(O)cc(C)c1C[C@H](N)C(=O)N1Cc2ccccc2C[C@H]1C(=O)NCc1nc2ccccc2n1CC(=O)O landed at 3.19 µM

For Cc1cc(O)cc(C)c1C[C@H](N)C(=O)N1Cc2ccccc2C[C@H]1C(=O)NCc1nc2ccccc2n1Cc1ccccc1 the compound record lists IC50 as 0.245 µM

The compound C[C@@H](NC(=O)[C@@H](N)Cc1ccc(O)cc1)C(=O)N[C@@H](Cc1ccccc1)C(=O)NCC(=O)N[C@@H](Cc1ccc(O)cc1)C(=O)N1CCC[C@H]1C(=O)N[C@@H](CO)C(N)=O showed IC50 equal to 0.0019 µM

Given item CCOC(=O)Cn1c(CNC(=O)[C@@H]2Cc3ccccc3CN2C(=O)[C@@H](N)Cc2c(C)cc(O)cc2C)nc2ccccc21 , the value recorded as its IC50 is 0.03 µM

====

# targetUnderTest: Mu-type opioid receptor (Cavia porcellus, UniProt P97266)
# Sequence (P97266 whole entry): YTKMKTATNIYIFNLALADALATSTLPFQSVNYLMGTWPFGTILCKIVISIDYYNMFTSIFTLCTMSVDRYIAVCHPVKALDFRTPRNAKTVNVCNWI
# protocolDetails: Functional bioactivity against mu opioid receptor in guinea-pig ileum
resultType: IC50 (µM)
Provide only the numeric value, understood in µM.

Query Cc1cc(O)cc(C)c1C[C@H](N)C(=O)N1Cc2ccccc2C[C@H]1C(=O)NCc1nc2ccccc2n1C on Mu-type opioid receptor (Cavia porcellus, UniProt P97266); IC50 returned: 0.45

# lookup: CC(C)[C@H](NC(=O)[C@H](CC(=O)O)NC(=O)[C@H](Cc1ccccc1)NC(=O)[C@@H](C)NC(=O)[C@@H](N)Cc1ccc(O)cc1)C(=O)N[C@H](C(=O)NCC(N)=O)C(C)C on Mu-type opioid receptor (Cavia porcellus, UniProt P97266), IC50 = 1.3

The compound Cc1cc(O)cc(C)c1C[C@H](N)C(=O)N1Cc2ccccc2C[C@H]1C(=O)NCc1nc2ccccc2n1CC1CC1 , tested on Mu-type opioid receptor (Cavia porcellus, UniProt P97266), showed IC50 of 0.064

====

# targetUnderTest: Delta-type opioid receptor (Mus musculus)
# protocolDetails: Functional bioactivity against delta opioid receptor in mouse vas deferens
# Type: tissue-based
resultType: IC50

Known IC50 results, listed for orientation:
INSERT INTO results (smilesstring, resulttype, recordedvalue) VALUES
  ('Cc1cc(O)cc(C)c1C[C@H](N)C(=O)N1Cc2ccccc2C[C@H]1C(=O)NCc1nc2ccccc2n1C', 'IC50', 'Not Active'),
  ('Cc1cc(O)cc(C)c1C[C@H](N)C(=O)N1Cc2ccccc2C[C@H]1C(=O)NCc1nc2ccccc2n1CC1CC1', 'IC50', 'Not Active'),
  ('C=CCn1c(CNC(=O)[C@@H]2Cc3ccccc3CN2C(=O)[C@@H](N)Cc2c(C)cc(O)cc2C)nc2ccccc21', 'IC50', 'Not Active'),
  ('Cc1cc(O)cc(C)c1C[C@H](N)C(=O)N1Cc2ccccc2C[C@H]1C(=O)NCc1nc2ccccc2n1Cc1ccccc1', 'IC50', 'Not Active'),
  ('CCOC(=O)Cn1c(CNC(=O)[C@@H]2Cc3ccccc3CN2C(=O)[C@@H](N)Cc2c(C)cc(O)cc2C)nc2ccccc21', 'IC50', 'Not Active');

Could you now consider this next molecule?
The molecule Cc1cc(O)cc(C)c1C[C@H](N)C(=O)N1Cc2ccccc2C[C@H]1C(=O)NCc1nc2ccccc2n1CC(=O)O on Delta-type opioid receptor (Mus musculus): IC50 was Not Active

====

# targetUnderTest: UniProtKB P33535
# Sequence (P33535 whole entry): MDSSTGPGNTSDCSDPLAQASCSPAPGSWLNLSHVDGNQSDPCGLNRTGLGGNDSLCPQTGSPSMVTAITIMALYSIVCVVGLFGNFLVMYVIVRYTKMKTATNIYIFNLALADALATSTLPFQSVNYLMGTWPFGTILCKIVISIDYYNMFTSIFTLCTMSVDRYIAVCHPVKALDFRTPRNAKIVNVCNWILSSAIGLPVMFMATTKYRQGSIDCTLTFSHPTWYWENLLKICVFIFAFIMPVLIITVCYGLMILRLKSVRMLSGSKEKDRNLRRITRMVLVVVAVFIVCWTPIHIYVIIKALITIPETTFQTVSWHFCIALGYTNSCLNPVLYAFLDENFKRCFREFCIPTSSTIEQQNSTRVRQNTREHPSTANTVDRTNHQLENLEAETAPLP
# protocolDetails: Displacement of [3H]DAMGO from rat mu opioid receptor in brain P2 synaptosomes
Hi there, I'd appreciate the recorded pKi for every entry that follows.
Keep it numeric: pKi is minus log10 of the concentration in mol/L.

The measured pKi associated with Cc1cc(O)cc(C)c1C[C@H](N)C(=O)N1Cc2ccccc2C[C@H]1C(=O)NCc1nc2ccccc2n1Cc1ccccc1 reads 8.99

Query Cc1cc(O)cc(C)c1C[C@H](N)C(=O)N1Cc2ccccc2C[C@H]1C(=O)NCc1nc2ccccc2n1CC1CC1 yields pKi of 9.28

Lab note: C=CCn1c(CNC(=O)[C@@H]2Cc3ccccc3CN2C(=O)[C@@H](N)Cc2c(C)cc(O)cc2C)nc2ccccc21 gave pKi of 9.36

Quick note, pKi for CCOC(=O)Cn1c(CNC(=O)[C@@H]2Cc3ccccc3CN2C(=O)[C@@H](N)Cc2c(C)cc(O)cc2C)nc2ccccc21 landed at 8.85

Form field pKi, entry Cc1cc(O)cc(C)c1C[C@H](N)C(=O)N1Cc2ccccc2C[C@H]1C(=O)NCc1nc2ccccc2n1C : 9.08

The reported pKi of the compound Cc1cc(O)cc(C)c1C[C@H](N)C(=O)N1Cc2ccccc2C[C@H]1C(=O)NCc1nc2ccccc2n1CC(=O)O was 8.16

====

Assignment: determine reported log10(Kb) for the given compounds.
# targetUnderTest: Delta-type opioid receptor (Mus musculus, UniProt P32300)
# Sequence (P32300 whole entry): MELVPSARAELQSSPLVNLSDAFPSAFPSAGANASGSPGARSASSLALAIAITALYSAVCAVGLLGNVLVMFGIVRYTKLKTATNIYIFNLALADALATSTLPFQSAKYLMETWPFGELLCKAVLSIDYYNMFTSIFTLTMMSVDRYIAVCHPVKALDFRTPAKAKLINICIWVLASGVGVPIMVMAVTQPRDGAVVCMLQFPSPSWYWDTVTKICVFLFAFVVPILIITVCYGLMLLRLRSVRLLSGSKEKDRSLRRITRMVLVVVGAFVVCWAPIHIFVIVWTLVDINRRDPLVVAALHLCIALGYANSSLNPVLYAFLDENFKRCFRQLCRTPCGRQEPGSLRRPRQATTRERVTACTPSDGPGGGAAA
# protocolDetails: Functional bioactivity against delta opioid receptor in mouse vas deferens
# Assay type: tissue-based
# settings: read-out: pA2 (converted)
In our notation, the value equals log10 of Kb in pM.

The compound listed as Cc1cc(O)cc(C)c1C[C@H](N)C(=O)N1Cc2ccccc2C[C@H]1C(=O)NCc1nc2ccccc2n1C has a reported log10(Kb) of 1.86

Entry Cc1cc(O)cc(C)c1C[C@H](N)C(=O)N1Cc2ccccc2C[C@H]1C(=O)NCc1nc2ccccc2n1CC(=O)O ; log10(Kb) = 2.43

Data point: CCOC(=O)Cn1c(CNC(=O)[C@@H]2Cc3ccccc3CN2C(=O)[C@@H](N)Cc2c(C)cc(O)cc2C)nc2ccccc21 ; log10(Kb) = 2.23

The compound identified as C=CCn1c(CNC(=O)[C@@H]2Cc3ccccc3CN2C(=O)[C@@H](N)Cc2c(C)cc(O)cc2C)nc2ccccc21 registered its log10(Kb) at 2.66

Recorded result, Cc1cc(O)cc(C)c1C[C@H](N)C(=O)N1Cc2ccccc2C[C@H]1C(=O)NCc1nc2ccccc2n1CC1CC1 , log10(Kb): 2.53

Cc1cc(O)cc(C)c1C[C@H](N)C(=O)N1Cc2ccccc2C[C@H]1C(=O)NCc1nc2ccccc2n1Cc1ccccc1 has a reported log10(Kb) of 3.48

====

Field: Ki. Provide a value for each of the compounds that follow.
# targetUnderTest: Delta-type opioid receptor (Rattus norvegicus)
# Sequence (P33533 whole entry): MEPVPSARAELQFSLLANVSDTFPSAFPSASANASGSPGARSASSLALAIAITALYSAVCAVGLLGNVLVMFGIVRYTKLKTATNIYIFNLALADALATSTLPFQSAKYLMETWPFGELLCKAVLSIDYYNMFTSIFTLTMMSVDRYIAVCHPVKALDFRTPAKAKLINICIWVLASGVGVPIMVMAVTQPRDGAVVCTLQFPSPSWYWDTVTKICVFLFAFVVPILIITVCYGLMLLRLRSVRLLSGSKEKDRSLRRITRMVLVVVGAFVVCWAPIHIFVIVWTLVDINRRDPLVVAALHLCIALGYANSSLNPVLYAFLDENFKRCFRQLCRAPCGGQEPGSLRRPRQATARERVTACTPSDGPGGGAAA
# protocolDetails: Displacement of [3H]deltorphin II from rat delta opioid receptor in brain P2 synaptosomes
Use nM as the unit, but write only the number.

// sample Cc1cc(O)cc(C)c1C[C@H](N)C(=O)N1Cc2ccccc2C[C@H]1C(=O)NCc1nc2ccccc2n1C , its Ki was 0.16

The compound Cc1cc(O)cc(C)c1C[C@H](N)C(=O)N1Cc2ccccc2C[C@H]1C(=O)NCc1nc2ccccc2n1Cc1ccccc1 showed Ki equal to 0.2

So for CCOC(=O)Cn1c(CNC(=O)[C@@H]2Cc3ccccc3CN2C(=O)[C@@H](N)Cc2c(C)cc(O)cc2C)nc2ccccc21 , the logged Ki turned out to be 0.12

Briefly, Ki measured for C=CCn1c(CNC(=O)[C@@H]2Cc3ccccc3CN2C(=O)[C@@H](N)Cc2c(C)cc(O)cc2C)nc2ccccc21 : 0.13

Sure, the documented Ki for Cc1cc(O)cc(C)c1C[C@H](N)C(=O)N1Cc2ccccc2C[C@H]1C(=O)NCc1nc2ccccc2n1CC1CC1 is 0.36

Record Cc1cc(O)cc(C)c1C[C@H](N)C(=O)N1Cc2ccccc2C[C@H]1C(=O)NCc1nc2ccccc2n1CC(=O)O . Reported Ki: 0.021
